Entry source: paper PMC3871636

target: double-labeled CYP3A4 (C64/C468)-DY/ER (Homo sapiens, UniProt P08684, S18F, form not given); assay: Time-resolved LRET (phosphorescence lifetime measurements); details: Table S1; (C64/C468)-DY/ER; same ligand concentrations
Sequence (P08684 13-503 S18F, form open): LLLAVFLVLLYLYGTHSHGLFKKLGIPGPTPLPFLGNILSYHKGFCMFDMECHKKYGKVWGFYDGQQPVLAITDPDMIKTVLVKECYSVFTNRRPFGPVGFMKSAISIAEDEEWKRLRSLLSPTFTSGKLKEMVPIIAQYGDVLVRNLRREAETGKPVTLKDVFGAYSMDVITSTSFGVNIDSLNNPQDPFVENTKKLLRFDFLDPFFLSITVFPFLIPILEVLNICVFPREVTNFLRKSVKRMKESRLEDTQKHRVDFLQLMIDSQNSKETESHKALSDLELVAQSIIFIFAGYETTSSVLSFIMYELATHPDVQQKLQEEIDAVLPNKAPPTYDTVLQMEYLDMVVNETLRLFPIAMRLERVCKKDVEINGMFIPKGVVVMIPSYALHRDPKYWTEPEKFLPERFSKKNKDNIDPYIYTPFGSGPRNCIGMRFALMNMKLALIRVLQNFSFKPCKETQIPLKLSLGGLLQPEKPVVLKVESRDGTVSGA
Documented τ2 (phosphorescence decay time with ligand) across a set of compounds
Response body: numeric value in µs, unit text excluded.

Look up τ2 (phosphorescence decay time with ligand) for this compound: O=c1cc(-c2ccccc2)oc2c1ccc1ccccc12 [ANF, α-naphthoflavone]
231

---

Documented τav (average phosphorescence lifetime with ligand) across a set of compounds
target: double-labeled CYP3A4 C377/C468-DY/ER (Homo sapiens, UniProt P08684, S18F, form not given); assay: Time-resolved LRET (phosphorescence lifetime measurements); conditions: Table S1; protein (C377/C468)-ER/DY; same ligand concentrations
Where a name gives a salt, the structure may show the parent alone.
Response body: numeric value in µs, unit text excluded.

These solved cases illustrate the format of a correct answer.
Compound | Result Units | Test Result
CC(C)C[C@H]1C(=O)N2CCC[C@H]2[C@]2(O)O[C@](NC(=O)[C@@H]3C=C4c5cccc6[nH]c(Br)c(c56)C[C@H]4N(C)C3)(C(C)C)C(=O)N12 [Bromocriptine, Bromocriptine mesylate] | µs | 108
OCCCCc1ccc2ccc3cccc4ccc1c2c34 | µs | 118
C[C@]12CC[C@H]3[C@@H](CCC4=CC(=O)CC[C@@]43C)[C@@H]1CC[C@@H]2O | µs | 152
O=c1cc(-c2ccccc2)oc2c1ccc1ccccc12 | µs | 147

Continue with the compound presented below.
Look up τav (average phosphorescence lifetime with ligand) for this compound: `CC(C)CCC[C@@H](C)[C@H]1CC[C@H]2[C@@H]3CC=C4C[C@@H](O)CC[C@]4(C)[C@H]3CC[C@]12C`
134

---

biological target: double-labeled CYP3A4 (C64/C468)-DY/ER (Homo sapiens, UniProt P08684, S18F, form not given); experiment: Steady-state LRET titration (delayed emission); type: binding; settings: Table S2; C64/C468-DY/ER; same ligand concentrations
Readout: ΔR, steady-state measurements (Å)
Response body: numeric value in Å, unit text excluded.

Look up ΔR, steady-state measurements for this compound: `OCCCCc1ccc2ccc3cccc4ccc1c2c34`
0.9

Look up ΔR, steady-state measurements for this compound: `C[C@]12CC[C@H]3[C@@H](CCC4=CC(=O)CC[C@@]43C)[C@@H]1CC[C@@H]2O`
5.5

---

molecular target: double-labeled CYP3A4 (C64/C468)-ER/DY (Homo sapiens, UniProt P08684, S18F, form not given); assay: Time-resolved LRET (phosphorescence lifetime measurements); conditions: Table S2; C64/C468-ER/DY; same ligand concentrations
Sequence (P08684 13-503 S18F, form open): as above
Counter-ions that a name gives are not always drawn.
Documented R (interprobe distance with ligand), lifetime measurements across a set of compounds
Answer by giving the amount and then stating its unit.

Compound | Test Result
CC(C)C[C@H]1C(=O)N2CCC[C@H]2[C@]2(O)O[C@](NC(=O)[C@@H]3C=C4c5cccc6[nH]c(Br)c(c56)C[C@H]4N(C)C3)(C(C)C)C(=O)N12 [Bromocriptine, Bromocriptine mesylate] | 36.0 ± 0.5 Å

Look up R (interprobe distance with ligand), lifetime measurements for this compound: `O=c1cc(-c2ccccc2)oc2c1ccc1ccccc12`
40.4 ± 0.1 Å

Look up R (interprobe distance with ligand), lifetime measurements for this compound: `CC(C)CCC[C@@H](C)[C@H]1CC[C@H]2[C@@H]3CC=C4C[C@@H](O)CC[C@]4(C)[C@H]3CC[C@]12C`
41.1± 0.2 Å

Look up R (interprobe distance with ligand), lifetime measurements for this compound: `C[C@]12CC[C@H]3[C@@H](CCC4=CC(=O)CC[C@@]43C)[C@@H]1CC[C@@H]2O`
40.8 ± 0.6 Å

Look up R (interprobe distance with ligand), lifetime measurements for this compound: `OCCCCc1ccc2ccc3cccc4ccc1c2c34`
36.7 ± 0.1 Å

---

Molecular target: double-labeled CYP3A4 (C64/C468)-ER/DY (Homo sapiens, UniProt P08684, S18F, form not given)
Assay: Steady-state LRET titration (delayed emission)
Format: binding
Conditions: (C64/C468)-ER/DY
Experimental: All absorbance and fluorescence assays (including the time-resolved fluorescence measurements) were performed at a protein concentration ≤1 µM at 25°C with continuous stirring. Absorbance spectra were recorded with an S2000 rapid scanning CCD spectrometer (Ocean Optics). […] Fluorescence-based ligand binding assays were done under anaerobic conditions. […] Quantitative interpretation of LRET results was also based on the use of PCA applied to a series of emission spectra normalized on integral intensity. […]
Structures can show the parent of a compound that is named as a salt.
Decision: ΔR (change in interprobe distance), steady-state fluorescence >= 2 Å yields Fulfilled, all other cases yield Not fulfilled.

Molecule | Class
OCCCCc1ccc2ccc3cccc4ccc1c2c34 | Not fulfilled

Please check the record `O=c1cc(-c2ccccc2)oc2c1ccc1ccccc12` and state if its ΔR (change in interprobe distance), steady-state fluorescence is at or above 2 Å.
Fulfilled

Please check the record `C[C@]12CC[C@H]3[C@@H](CCC4=CC(=O)CC[C@@]43C)[C@@H]1CC[C@@H]2O` and state if its ΔR (change in interprobe distance), steady-state fluorescence is at or above 2 Å.
Fulfilled

Please check the record `CC(C)CCC[C@@H](C)[C@H]1CC[C@H]2[C@@H]3CC=C4C[C@@H](O)CC[C@]4(C)[C@H]3CC[C@]12C` and state if its ΔR (change in interprobe distance), steady-state fluorescence is at or above 2 Å.
Fulfilled

Please check the record CC(C)C[C@H]1C(=O)N2CCC[C@H]2[C@]2(O)O[C@](NC(=O)[C@@H]3C=C4c5cccc6[nH]c(Br)c(c56)C[C@H]4N(C)C3)(C(C)C)C(=O)N12 [Bromocriptine, Bromocriptine mesylate] and state if its ΔR (change in interprobe distance), steady-state fluorescence is at or above 2 Å.
Not fulfilled

---

Documented τav (average phosphorescence lifetime with ligand) across a set of compounds
target: double-labeled CYP3A4 (C64/C468)-DY/ER (Homo sapiens, UniProt P08684, S18F, form not given); experiment: Time-resolved LRET (phosphorescence lifetime measurements); conditions: Table S1; (C64/C468)-DY/ER; same ligand concentrations
Counter-ions that a name gives are not always drawn.

These solved cases illustrate the format of a correct answer.
Compound | Test Result
OCCCCc1ccc2ccc3cccc4ccc1c2c34 | 129 ± 1 µs
O=c1cc(-c2ccccc2)oc2c1ccc1ccccc12 | 154 ± 4 µs
CC(C)C[C@H]1C(=O)N2CCC[C@H]2[C@]2(O)O[C@](NC(=O)[C@@H]3C=C4c5cccc6[nH]c(Br)c(c56)C[C@H]4N(C)C3)(C(C)C)C(=O)N12 [Bromocriptine, Bromocriptine mesylate] | 141 ± 7 µs
C[C@]12CC[C@H]3[C@@H](CCC4=CC(=O)CC[C@@]43C)[C@@H]1CC[C@@H]2O | 176 ± 2 µs

Continue with the compound presented below.
Look up τav (average phosphorescence lifetime with ligand) for this compound: `CC(C)CCC[C@@H](C)[C@H]1CC[C@H]2[C@@H]3CC=C4C[C@@H](O)CC[C@]4(C)[C@H]3CC[C@]12C`
152 ± 6 µs

---

Documented ΔR (change in interprobe distance), lifetime measurements across a set of compounds
target: double-labeled CYP3A4 (C64/C468)-ER/DY (Homo sapiens, UniProt P08684, S18F, form not given); experiment: Time-resolved LRET (phosphorescence lifetime measurements); settings: (C64/C468)-ER/DY; nearly-saturating ligand: ANF 100 µM, bromocriptine 2.5 µM, cholesterol 50 µM, testosterone 100 µM
Structures can show the parent of a compound that is named as a salt.
Response body: numeric value in Å, unit text excluded.

These solved cases illustrate the format of a correct answer.
Compound | Test Result
OCCCCc1ccc2ccc3cccc4ccc1c2c34 | 0.4
CC(C)CCC[C@@H](C)[C@H]1CC[C@H]2[C@@H]3CC=C4C[C@@H](O)CC[C@]4(C)[C@H]3CC[C@]12C | 4.8
C[C@]12CC[C@H]3[C@@H](CCC4=CC(=O)CC[C@@]43C)[C@@H]1CC[C@@H]2O | 4.5
CC(C)C[C@H]1C(=O)N2CCC[C@H]2[C@]2(O)O[C@](NC(=O)[C@@H]3C=C4c5cccc6[nH]c(Br)c(c56)C[C@H]4N(C)C3)(C(C)C)C(=O)N12 [Bromocriptine, Bromocriptine mesylate] | −0.3

Continue with the compound presented below.
Look up ΔR (change in interprobe distance), lifetime measurements for this compound: `O=c1cc(-c2ccccc2)oc2c1ccc1ccccc12`
4.1

---

Molecular target: double-labeled CYP3A4 (C64/C468)-ER/DY (Homo sapiens, UniProt P08684, S18F, form not given)
Assay: Time-resolved LRET (phosphorescence lifetime measurements)
Conditions: Table S2; C64/C468-ER/DY; same ligand concentrations
From the text: The excitation wavelength was set to 540 nm.
Counter-ions that a name gives are not always drawn.
Documented ΔR, lifetime measurements across a set of compounds
Response body: numeric value in Å, unit text excluded.

Look up ΔR, lifetime measurements for this compound: CC(C)C[C@H]1C(=O)N2CCC[C@H]2[C@]2(O)O[C@](NC(=O)[C@@H]3C=C4c5cccc6[nH]c(Br)c(c56)C[C@H]4N(C)C3)(C(C)C)C(=O)N12 [Bromocriptine, Bromocriptine mesylate]
-0.3
